- Study system: p38α (Homo sapiens)
- Construct: c-myc (N); 6His (N); made in house; host or cells: E. coli (PET vectors)
- Sequence (Q16539 whole entry): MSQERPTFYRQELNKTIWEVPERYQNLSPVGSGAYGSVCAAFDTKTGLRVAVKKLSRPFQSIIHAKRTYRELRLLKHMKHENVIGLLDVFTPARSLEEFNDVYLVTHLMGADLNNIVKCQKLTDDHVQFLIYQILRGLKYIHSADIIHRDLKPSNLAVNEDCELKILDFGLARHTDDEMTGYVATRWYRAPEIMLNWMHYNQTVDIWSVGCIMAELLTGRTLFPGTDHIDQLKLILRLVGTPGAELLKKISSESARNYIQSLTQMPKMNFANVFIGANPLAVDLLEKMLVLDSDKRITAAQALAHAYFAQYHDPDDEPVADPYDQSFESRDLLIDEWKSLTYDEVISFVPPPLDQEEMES
- Protocol summary: In vitro enzyme assay, p38 kinase (p38α isoform)
- Format: biochemical
Parameter measured: IC50 (µM)

# Smiles code, IC50 [µM]
records = [
    ("Cc1ccc(NC(=O)c2ccnc(N3CCOCC3)c2)cc1Nc1ncnc2sccc12", 0.07),
]

P = Cc1ccc(NC(=O)c2ccnc(N3CCOCC3)c2)cc1Nc1ncnc2c(C)csc12
Q = Cc1ccc(NC(=O)c2ccnc(N3CCOCC3)c2)cc1Nc1ncnc2ccsc12
R = Cc1ccc(NC(=O)c2ccnc(N3CCOCC3)c2)cc1Nc1ncnc2scc(C)c12
Rank the 3 molecules: largest IC50 first, smallest last. # format: label list in the order the request specifies
R, Q, P
